Species: Rattus norvegicus
test.description: Open TG-GATES - Regimen: Daily Repeat
Assay type: toxicity, organism-based, Sprague-Dawley
Set-up: regimen Daily Repeat, gender Male, age 6 weeks
details: in vivo, po, 100 mg/kg, […], tissue Plasma, route gavage, dose level Low, time 28 day
Task for the reader: assign each of the following molecules its reported Cl.
Could you give me the number in meq/L? Just the number is fine.

Just so you know, measured Cl for CC(=O)[C@@]1(O)CC[C@H]2[C@@H]3C=C(Cl)C4=CC(=O)CC[C@]4(C)[C@H]3CC[C@@]21C [CHLORMADINONE] came out at 105.8

Lab book: Cl of CC(S)C(=O)NCC(=O)O (centres undefined) [TIOPRONIN] noted as 106.8

Lab book: Cl of O=C(O)c1ccccc1Nc1ccccc1 [FENAMIC ACID] noted as 105.6

Please fill in: Cl reported for CCCCNC(=O)NS(=O)(=O)c1ccc(C)cc1 [TOLBUTAMIDE] = 105.2

====

Please provide measured KIDNEY_TOTAL for the entries that follow.
Species: Rattus norvegicus
test.description: Open TG-GATES - Regimen: Daily Repeat
Type: toxicity, organism-based, Sprague-Dawley
Set-up: regimen Daily Repeat, gender Male, age 6 weeks
details: in vivo, po, 1000 mg/kg, […], tissue Kidney, route gavage, dose level High, time 7 day
The response must be a number in g with no trailing unit.

KIDNEY_TOTAL reading for CC(S)C(=O)NCC(=O)O (centres undefined) : 2.3

KIDNEY_TOTAL reported for this compound CCCCNC(=O)NS(=O)(=O)c1ccc(C)cc1 [TOLBUTAMIDE] : 2.2

Data point: CC(=O)[C@@]1(O)CC[C@H]2[C@@H]3C=C(Cl)C4=CC(=O)CC[C@]4(C)[C@H]3CC[C@@]21C ; KIDNEY_TOTAL = 1.9

Lab note: measured KIDNEY_TOTAL of O=C(O)c1ccccc1Nc1ccccc1 was 2.3

====

Would you kindly list TC for each of these molecules?
Species: Rattus norvegicus
test.description: Open TG-GATES - Regimen: Daily Repeat
Format: toxicity, organism-based, Sprague-Dawley
Parameters: regimen Daily Repeat, gender Male, age 6 weeks
details: in vivo, po, 0 mg/kg, […], tissue Plasma, route gavage, dose level Control, time 28 day
# number only, unit mg/dL dropped from output

For CN(C/C=C/C#CC(C)(C)C)Cc1cccc2ccccc12 [TERBINAFINE] the molecule record lists TC as 62.6

// recorded TC for CC(S)C(=O)NCC(=O)O (stereo not drawn) [TIOPRONIN] : 78.2

So for CCCCC1C(=O)N(c2ccccc2)N(c2ccccc2)C1=O [PHENYLBUTAZONE] , the logged TC turned out to be 61

====

Species on record: Rattus norvegicus
test.description: Open TG-GATES - Regimen: Daily Repeat
Type: toxicity, organism-based, Sprague-Dawley
Parameters: regimen Daily Repeat, gender Male, age 6 weeks
details: in vivo, po, 100 mg/kg, […], tissue Blood, route gavage, dose level Low, time 7 day
assay.readout: Plat (x10_4/uL)
Give your result in x10_4/uL as a bare value.

Plat reported for this molecule CC(S)C(=O)NCC(=O)O (centres undefined) : 125.6

Lab book: Plat of CC(=O)[C@@]1(O)CC[C@H]2[C@@H]3C=C(Cl)C4=CC(=O)CC[C@]4(C)[C@H]3CC[C@@]21C noted as 133.1

// sample CCCCNC(=O)NS(=O)(=O)c1ccc(C)cc1 [TOLBUTAMIDE] , its Plat was 130

Query O=C(O)c1ccccc1Nc1ccccc1 yields Plat of 114.4
